- target.under.test: Retinoic acid receptor RXR-alpha (Homo sapiens) (UniProt P19793)
- Sequence (P19793 whole entry, looked up): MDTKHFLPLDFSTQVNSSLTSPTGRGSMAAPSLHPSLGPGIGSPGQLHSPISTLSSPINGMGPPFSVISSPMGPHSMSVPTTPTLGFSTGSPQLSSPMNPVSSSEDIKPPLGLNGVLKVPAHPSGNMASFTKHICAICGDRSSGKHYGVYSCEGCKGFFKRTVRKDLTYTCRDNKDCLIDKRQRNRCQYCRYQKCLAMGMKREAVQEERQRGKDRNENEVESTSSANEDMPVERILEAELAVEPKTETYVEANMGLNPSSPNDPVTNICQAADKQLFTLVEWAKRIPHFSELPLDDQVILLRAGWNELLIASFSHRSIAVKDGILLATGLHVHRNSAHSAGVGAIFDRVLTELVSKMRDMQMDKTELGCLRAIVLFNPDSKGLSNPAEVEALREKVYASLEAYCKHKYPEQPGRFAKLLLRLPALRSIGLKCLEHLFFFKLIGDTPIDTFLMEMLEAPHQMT
- assay.remarks: qHTS assay for small molecule agonists of retinoid X receptor alpha signaling (AID 588544)
- assay.setup: HEK293T RXRa-UAS-bla, beta-lactamase reporter, 18 h; series mostly up to 76.7 µM
Inconclusive results are not listed. Calls of active or inactive are those of the source. Calls follow the shape of the full dose curve.
The reply should name one outcome from T for active, F for inactive

Some solved cases for reference:
compound	target.under.test	category.label
c1c[nH]cn1	Retinoic acid receptor RXR-alpha (Homo sapiens) (UniProt P19793)	F
CCCC(=O)OC(=O)CCC	Retinoic acid receptor RXR-alpha (Homo sapiens) (UniProt P19793)	F
c1cc2c3c(c1)ccc1cccc(c13)C2	Retinoic acid receptor RXR-alpha (Homo sapiens) (UniProt P19793)	F
COc1ccc(C)cc1N	Retinoic acid receptor RXR-alpha (Homo sapiens) (UniProt P19793)	F
C[Si](C)(C)Cl	Retinoic acid receptor RXR-alpha (Homo sapiens) (UniProt P19793)	F
Cc1ccccc1OCC1CO1 (configuration not stated)	Retinoic acid receptor RXR-alpha (Homo sapiens) (UniProt P19793)	F
CCCCOC(=O)COc1ccc(Cl)cc1Cl	Retinoic acid receptor RXR-alpha (Homo sapiens) (UniProt P19793)	F
O=C(O)c1ccc([N+](=O)[O-])cc1	Retinoic acid receptor RXR-alpha (Homo sapiens) (UniProt P19793)	F
Cc1ccc2ccc3cccc4ccc1c2c34	Retinoic acid receptor RXR-alpha (Homo sapiens) (UniProt P19793)	F
Cc1ccc(O)c(N)c1	Retinoic acid receptor RXR-alpha (Homo sapiens) (UniProt P19793)	F

*Q* Query: recorded result category for Cc1cc2nc(N)sc2cc1C in this test
*A* F

*Q* // same read-out, input: CC(CCC(=O)O)(c1ccc(O)cc1)c1ccc(O)cc1
*A* F

*Q* // same read-out, input: CCCCCCCCOc1ccc(C(=O)O)cc1
*A* T

*Q* // same read-out, input: Oc1cc2c(cc1O)[C@H]1c3ccc(O)c(O)c3OC[C@@]1(O)C2
*A* F

*Q* // same read-out, input: Nc1ccc(N=Nc2ccccc2)c(N)c1
*A* F

*Q* // same read-out, input: Cc1cc(-c2ccc(N=Nc3cc(S(=O)(=O)O)c4ccccc4c3N)c(C)c2)ccc1N=Nc1cc(S(=O)(=O)O)c2ccccc2c1N
*A* F

*Q* // same read-out, input: N[C@@H](Cc1ccccc1)C(=O)O
*A* F

*Q* // same read-out, input: Cc1cccnc1
*A* F

*Q* // same read-out, input: Nc1cc(C(=O)O)c(O)c(S(=O)(=O)O)c1
*A* F

*Q* // same read-out, input: CC(C)OCC1CO1 (configuration not stated)
*A* F
